Biological target: T1, human IL-6 (human, UniProt P05231 30-212)
T1 construct: also called interleukin-6
T1 sequence (P05231 30-212 limits assumed): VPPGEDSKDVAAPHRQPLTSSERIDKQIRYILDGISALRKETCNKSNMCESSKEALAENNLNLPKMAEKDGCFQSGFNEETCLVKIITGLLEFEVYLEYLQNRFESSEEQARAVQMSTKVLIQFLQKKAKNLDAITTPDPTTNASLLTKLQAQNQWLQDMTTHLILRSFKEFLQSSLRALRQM
Assay: SPR (Biacore T200), antibody from cell supernatant captured on Protein A, IL-6 flowed over, 37 C
Experimental: Those four positions were selected based on their tolerance for mutations as observed in bacterial and mammalian screens. […] These cultures were centrifuged and supernatants containing secreted antibodies were harvested and diluted in HBS-EP+ running buffer (1:20 ratio). Antibodies were captured on a Protein A chip (GE) by injecting 1:20 cell supernatant dilutions at 10 μL/min for 60 seconds. […]

| BINDER | koff |
| --- | --- |
| anti-IL-6 antibody, heavy chain S35H, G66D / light chain WT (antibody, human IgG1, V domains shown, Derived as m2; Engineered human IgG1) VH: EVQLVESGGGLVQPGGSLRLSCAASGFTFSPFAMHWVRQAPGKGLEWVAKISPGGSWTYYSDTVTDRFTFSLDTSKSTAYLQMNSLRAEDTAVYYCARQLWGYYALDIWGQGTLVTVSS VL: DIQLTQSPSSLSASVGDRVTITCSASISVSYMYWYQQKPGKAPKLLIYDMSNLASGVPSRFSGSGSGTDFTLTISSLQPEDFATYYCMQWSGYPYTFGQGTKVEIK | 0.000397 s⁻¹ |
| anti-IL-6 antibody, heavy chain I51E, G66D / light chain WT (antibody, human IgG1, V domains shown, Derived as m2; Engineered human IgG1) VH: EVQLVESGGGLVQPGGSLRLSCAASGFTFSPFAMSWVRQAPGKGLEWVAKESPGGSWTYYSDTVTDRFTFSLDTSKSTAYLQMNSLRAEDTAVYYCARQLWGYYALDIWGQGTLVTVSS VL: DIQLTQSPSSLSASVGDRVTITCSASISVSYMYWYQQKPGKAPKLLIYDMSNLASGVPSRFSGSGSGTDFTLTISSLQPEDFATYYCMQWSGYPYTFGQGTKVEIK | 0.00076 s⁻¹ |
| anti-IL-6 antibody, heavy chain I51Y, G66D / light chain WT (antibody, human IgG1, V domains shown, Derived as m2; Engineered human IgG1) VH: EVQLVESGGGLVQPGGSLRLSCAASGFTFSPFAMSWVRQAPGKGLEWVAKYSPGGSWTYYSDTVTDRFTFSLDTSKSTAYLQMNSLRAEDTAVYYCARQLWGYYALDIWGQGTLVTVSS VL: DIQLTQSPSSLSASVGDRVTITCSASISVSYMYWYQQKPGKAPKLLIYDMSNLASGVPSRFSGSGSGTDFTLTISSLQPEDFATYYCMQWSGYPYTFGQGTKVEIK | 0.0051 s⁻¹ |
